Origin of the recorded values: PubChem BioAssay (NCATS)

- protocol: qHTS of pediatric cancer cell lines to identify multiple opportunities for drug repurposing: Confirmatory screen for Rh41 cells (AID 1347123);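 note: 48 h compound exposure; nearly all actives have a fitted effect of over 60% in size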
- assay context: Rh41 rhabdomyosarcoma cells, viability/cytotoxicity qHTS; series mostly up to 45.9 µM
Inconclusive results are not listed. Activity calls are given as the source filed them. Calls come from the whole dose curve; as a rule, active = well fitted cell-killing curve with a large enough effect; inconclusive = small, poorly fitted or top-dose-only effect; inactive = no such curve, though single readings can be large or run the other way.
Labels: active, inactive

> print(dat)
                                    compound  class.name
 1  C=C(c1ccc(C(=O)O)cc1)c1cc2c(cc1C)C(C)(C)CCC2(C)C    inactive
 2                CCN(CC)C(=S)SSC(=S)N(CC)CC      active
 3  Oc1ccc(-c2nc(-c3ccc(F)cc3)c(-c3ccncc3)[nH]2)cc1      active
 4  CCN(CC)CCOc1ccc(Nc2ncc3cc(-c4c(Cl)cccc4Cl)c(=O)n(C)c3n2)cc1      active
 5  COc1cc(C(C)=O)ccc1OCCCN1CCC(c2noc3cc(F)ccc23)CC1      active
 6  Nc1ncn([C@H]2C[C@H](O)[C@@H](CO)O2)c(=O)n1    inactive
 7     CN(C)c1ccc2nc3ccc(=[N+](C)C)cc-3sc2c1      active
 8  Nc1ccn([C@@H]2O[C@H](CO)[C@@H](O)C2O)c(=O)n1 (stereo partly specified)    inactive
 9  CCOc1cc(CC(=O)N[C@@H](CC(C)C)c2ccccc2N2CCCCC2)ccc1C(=O)O    inactive
10  Cc1ccc(NC(=O)c2ccc(CN3CCN(C)CC3)cc2)cc1Nc1nccc(-c2cccnc2)n1    inactive
11  O=C1c2c(O)cc(O)cc2OC(c2ccc(O)c(O)c2)C1O (stereo unspecified)    inactive

----------
- System: MKL-2
- protocol: qHTS assay to identify novel small-molecules to repurpose for Merkel cell carcinoma treatment (AID 1296009); note: nearly all actives have a fitted effect of over 60% in size
- assay context: MCC and control cell lines, CellTiter-Glo viability, 72 h; series mostly up to 46 µM
Records with an inconclusive call do not appear. Activity calls are given as the source filed them. Calls follow the shape of the dose curve; as a rule, active = well fitted inhibition curve with a large enough effect; inconclusive = small, poorly fitted or top-dose-only effect; inactive = flat fitted curve, though single readings scatter.
Labels: t for active, f for inactive

> print(dat)
                                    compound  class.name
 1      C[C@H](Cn1cnc2c(N)ncnc21)OCP(=O)(O)O           f
 2                    Cc1cccc(C#Cc2ccccc2)n1           f
 3  Clc1ccc(C(Cn2ccnc2)OCc2c(Cl)cccc2Cl)c(Cl)c1 (stereo not given)           f
 4  CC(C)C[C@H](NC(=O)[C@H](Cc1ccccc1)NC(=O)c1cnccn1)B(O)O           t
 5  CC(C)c1ccc2c(c1)c(SC(C)(C)C)c(CC(C)(C)C(=O)O)n2Cc1ccc(Cl)cc1           f
 6  CC1(C)NC(=O)N(c2ccc([N+](=O)[O-])c(C(F)(F)F)c2)C1=O           f
 7  O=C(CS(=O)Cc1ccco1)NCC=CCOc1cc(CN2CCCCC2)ccn1 (stereo not given)           f
 8  Cc1ccc(Nc2nccc(N(C)c3ccc4c(C)n(C)nc4c3)n2)cc1S(N)(=O)=O           f
 9                     S=c1nc[nH]c2nc[nH]c12           f
10  CC(C)c1nc(CN(C)C(=O)N[C@H](C(=O)N[C@@H](Cc2ccccc2)C[C@H](O)[C@H](Cc2ccccc2)NC(=O)OCc2cncs2)C(C)C)cs1           f

----------
- Tested on: GB4
- protocol: qHTS profiling for inhibitors of Plasmodium falciparum proliferation (AID 504749); note: nearly all actives have a fitted effect of over 60% in size; note: potency is the fitted concentration of half-maximal effect
- assay context: P. falciparum in erythrocytes, SYBR Green DNA, 72 h; series mostly up to 28.7 µM
- Description: NIH National Institute of Allergy and Infectious Diseases [NIAID] NIH Chemical Genomics Center [NCGC] […] Because mature erythrocytes lack DNA, only Plasmodium-derived DNA is detected. NCGC Assay Protocol Summary: The SYBR Green viability assay was adapted from a method described previously (Plouffe et al., 2008). […] The following morning, fluorescence intensity at 485(14) nm excitation and 535(25) nm emission wavelengths was measured on an EnVision (Perkin Elmer) plate reader. […]
Results filed as inconclusive are left out. Activity calls are given as the source filed them. Calls come from the whole dose curve; as a rule, active = well fitted inhibition curve with a large enough effect; inconclusive = small, poorly fitted or top-dose-only effect; inactive = flat fitted curve, though single readings scatter.
readout name: Potency

> print(dat)
                                    compound  readout.name  experimental.result
 1  COc1ccc(C2(C#N)CCC(C(=O)O)CC2)cc1OC1CCCC1 (configuration not stated)       Potency             inactive
 2     CN(C)c1ccc2nc3ccc(=[N+](C)C)cc-3sc2c1       Potency   0.0301 µM (active)
 3  Nc1cc(C(Cl)=C(Cl)Cl)c(S(N)(=O)=O)cc1S(N)(=O)=O       Potency             inactive
 4  COc1cc2c(cc1OC)C1CC(=O)C(CC(C)C)CN1CC2 (configuration not stated)       Potency             inactive
 5  COCCCOc1ccnc(CS(=O)c2nc3ccccc3[nH]2)c1C (configuration not stated)       Potency             inactive
 6  Cc1nc2n(c(=O)c1CCN1CCC(c3noc4cc(F)ccc34)CC1)CCCC2       Potency             inactive
 7   CNC[C@@H](O)[C@@H](O)[C@H](O)[C@H](O)CO       Potency             inactive
 8           Cc1ccc(C)c(OCCCC(C)(C)C(=O)O)c1       Potency             inactive
 9  CC1(C)NC(=O)N(c2ccc([N+](=O)[O-])c(C(F)(F)F)c2)C1=O       Potency             inactive
10  N[C@@H](Cc1cc(I)c(Oc2cc(I)c(O)c(I)c2)c(I)c1)C(=O)O       Potency             inactive
11  C[Se]CCC(N)C(=O)O (configuration not stated)       Potency             inactive
12            Cc1cc2cc3c(C)cc(=O)oc3c(C)c2o1       Potency             inactive

----------
- protocol: qHTS Assay for Identification of Small Molecule Agonists for Thrombopoietin (TPO) Signaling Pathway (AID 917)
- assay context: TPO signaling pathway reporter cells, agonist qHTS, stimulated with TPO at its EC50; series mostly up to 38.5 µM
- Method: NIH Molecular Libraries Screening Centers Network [MLSCN] NIH Chemical Genomics Center [NCGC] […] Cells were maintained at 37 C and 5% CO2in RPMI with 10% fetal bovine serum, 0.5 ng/mL murine IL-3, 100U/ml penicillin and 100 ug/ml streptomycin. […] Following 24 hrs of incubation at 37 C and 5% CO2, 4 uL of Steadylite detector mix (PerkinElmer) was added, the plates incubated at room temperature for 10 min and luminescence was measured for 10 s and 2X binning by a ViewLux detector (Perkin Elmer).
Records with an inconclusive call do not appear. Calls of active or inactive are those of the source. Calls come from the whole dose curve; as a rule, active = well fitted activation curve with a large enough effect; inconclusive = small, poorly fitted or top-dose-only effect, or effect the other way; inactive = flat fitted curve, though single readings scatter.
Labels: active, inactive

> print(dat)
                                    compound  class.name
 1                          NNc1nncc2ccccc12      active
 2  COc1ccccc1N1CCN(CCN(C(=O)C2CCCCC2)c2ccccn2)CC1    inactive
 3         O=C(CCc1ccc(O)cc1)c1c(O)cc(O)cc1O    inactive
 4                    Cc1cccc(C#Cc2ccccc2)n1      active
 5                 CNC[C@H](O)c1ccc(O)c(O)c1    inactive
 6  CC1(C)NC(=O)N(c2ccc([N+](=O)[O-])c(C(F)(F)F)c2)C1=O    inactive
 7  O=Nc1c(-c2c(O)[nH]c3cc(Br)ccc23)[nH]c2ccccc12      active
 8  Cc1nc2n(c(=O)c1CCN1CCC(c3noc4cc(F)ccc34)CC1)CCCC2    inactive
 9  Cc1c(OCC(F)(F)F)ccnc1CS(=O)c1nc2ccccc2[nH]1 (stereo unspecified)    inactive
10             Nc1nc(OCc2ccccc2)c2[nH]cnc2n1    inactive
11         O=C(O)c1cccnc1Nc1cccc(C(F)(F)F)c1    inactive
